# assay.text: Clearance in Sprague-Dawley rat at 1.7 mg/kg
# Assay type: ADME, organism-based
# Design: dose 1.7 mg/kg
# experimental.context: in vivo
parameter.measured: clearance (mL/min/kg)
Answer in mL/min/kg, number only, no unit symbol.

*Q* I am curious: what clearance value has been reported for CC1=C(C(=O)Nc2ccc3[nH]ncc3c2)C(c2ccc3ccccc3c2)CC(=O)N1 (stereo unspecified) [GSK-270822A] ?
*A* 45

----------
# assay.text: Half life in Sprague-Dawley rat at 1.8 mg/kg
# Format: ADME, organism-based
# Set-up: dose 1.8 mg/kg
# experimental.context: in vivo
parameter.measured: half-life
Note: a bare number is incomplete; add the unit.

*Q* Need half-life, item CC1=C(C(=O)Nc2cc3cn[nH]c3cc2F)C(c2ccc(C(F)(F)F)cc2)CC(=O)N1 (stereo unspecified)
*A* 60 min

----------
# assay.text: Plasma concentration in spontaneously hypertensive rat at 3 mg/kg after 8 hrs
# Format: ADME, organism-based
# Design: dose 3 mg/kg
parameter.measured: concentration at 8 h

*Q* Please report the recorded concentration at 8 h for CC1=C(C(=O)Nc2cc3cn[nH]c3cc2F)C(c2ccc(C(F)(F)F)cc2)CC(=O)N1 (stereo unspecified) .
*A* 74 ng/mL

----------
# assay.text: Volume of distribution in Sprague-Dawley rat at 1.3 mg/kg
# Format: ADME, organism-based
# Set-up: dose 1.3 mg/kg
# experimental.context: in vivo, read-out: Vdss
parameter.measured: Vd (L/kg)
Please state the figure in L/kg; there is no need to write the unit.

*Q* Reported Vd, molecule CC1=C(C(=O)Nc2ccc3[nH]nc(C)c3c2)C(c2ccc(C(F)(F)F)cc2)CC(=O)N1 (stereo unspecified) [GSK-466314A] : ____
*A* 2.8

----------
# assay.text: Clearance in Sprague-Dawley rat
# Format: ADME, organism-based
# experimental.context: in vivo
parameter.measured: clearance

*Q* Sample CC1=C(C(=O)Nc2ccc3[nH]ncc3c2)C(c2ccc(F)cc2)NC(=O)N1 (stereo unspecified) [GSK-180736A] — what was its clearance?
*A* 50 mL/min/kg

----------
# assay.text: Plasma concentration in spontaneously hypertensive rat at 3 mg/kg after 24 hrs
# Type: ADME, organism-based
# Set-up: dose 3 mg/kg
parameter.measured: concentration at 24 h (ng/mL)
Response body: numeric value in ng/mL, unit text excluded.

*Q* Endpoint output: concentration at 24 h of CC1=C(C(=O)Nc2cc3cn[nH]c3cc2F)C(c2ccc(C(F)(F)F)cc2)CC(=O)N1 (stereo unspecified) . Value?
*A* 2

----------
# assay.text: Cmax in Sprague-Dawley rat at 1.8 mg/kg, iv
# Assay type: ADME, organism-based
# Design: dose 1.8 mg/kg, route intravenous
# experimental.context: in vivo
parameter.measured: Cmax
Give your result as the value with the unit written after it.

*Q* Please give the measured Cmax for this compound: CC1=C(C(=O)Nc2cc3cn[nH]c3cc2F)C(c2ccc(C(F)(F)F)cc2)CC(=O)N1 (stereo unspecified)
*A* 1560 ng/mL

----------
# assay.text: Half life in Sprague-Dawley rat at 1.6 mg/kg
# Assay type: ADME, organism-based
# Design: dose 1.6 mg/kg
# experimental.context: in vivo
parameter.measured: half-life (h)
Just the number in h, nothing appended.

*Q* Item under review: CC1=C(C(=O)Nc2ccc3[nH]ncc3c2)C(c2ccc(F)cc2)CC(=O)N1 (stereo unspecified) . Reported half-life?
*A* 1

----------
# target.or.test.system: Rho-associated protein kinase 1 (Homo sapiens)
# Sequence (Q13464 whole entry): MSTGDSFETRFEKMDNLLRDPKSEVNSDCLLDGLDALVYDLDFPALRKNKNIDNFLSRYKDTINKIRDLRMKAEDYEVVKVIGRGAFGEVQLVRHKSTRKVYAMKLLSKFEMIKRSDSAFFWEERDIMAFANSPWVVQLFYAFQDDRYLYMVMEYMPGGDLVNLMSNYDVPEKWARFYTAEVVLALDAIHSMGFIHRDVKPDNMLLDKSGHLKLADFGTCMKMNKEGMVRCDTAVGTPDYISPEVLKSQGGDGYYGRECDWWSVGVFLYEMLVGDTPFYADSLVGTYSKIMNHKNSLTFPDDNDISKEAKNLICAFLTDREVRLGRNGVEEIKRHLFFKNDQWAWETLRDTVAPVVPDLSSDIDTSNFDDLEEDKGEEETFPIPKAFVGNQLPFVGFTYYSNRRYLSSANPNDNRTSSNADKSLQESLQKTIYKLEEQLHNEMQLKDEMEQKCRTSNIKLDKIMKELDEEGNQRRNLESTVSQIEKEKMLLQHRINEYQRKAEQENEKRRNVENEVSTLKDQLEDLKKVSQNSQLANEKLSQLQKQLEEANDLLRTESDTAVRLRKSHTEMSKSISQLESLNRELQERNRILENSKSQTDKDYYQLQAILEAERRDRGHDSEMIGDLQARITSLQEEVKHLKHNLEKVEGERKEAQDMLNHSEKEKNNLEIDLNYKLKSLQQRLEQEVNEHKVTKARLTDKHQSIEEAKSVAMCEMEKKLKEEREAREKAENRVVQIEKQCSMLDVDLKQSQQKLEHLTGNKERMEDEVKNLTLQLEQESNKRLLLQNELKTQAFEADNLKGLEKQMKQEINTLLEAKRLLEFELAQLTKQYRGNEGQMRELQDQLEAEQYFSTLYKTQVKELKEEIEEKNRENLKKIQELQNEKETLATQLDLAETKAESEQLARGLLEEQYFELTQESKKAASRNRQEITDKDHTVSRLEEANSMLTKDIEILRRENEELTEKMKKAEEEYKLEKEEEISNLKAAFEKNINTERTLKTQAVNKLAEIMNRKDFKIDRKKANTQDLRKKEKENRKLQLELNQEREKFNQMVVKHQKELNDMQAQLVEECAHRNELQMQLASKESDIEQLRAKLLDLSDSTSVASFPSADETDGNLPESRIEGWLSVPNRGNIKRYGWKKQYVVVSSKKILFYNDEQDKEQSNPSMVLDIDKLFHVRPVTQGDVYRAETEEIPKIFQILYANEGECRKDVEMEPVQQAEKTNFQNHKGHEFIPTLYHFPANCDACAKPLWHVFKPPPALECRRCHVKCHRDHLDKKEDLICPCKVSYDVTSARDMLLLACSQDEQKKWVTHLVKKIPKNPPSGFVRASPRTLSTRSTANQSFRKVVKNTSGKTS
# assay.text: Inhibition of human recombinant ROCK1 expressed in Sf9 cells […]
Flag rule - IC50 less than 9 nM flags rule met; the remaining entries get rule not met.

*Q* Item CC1=C(C(=O)Nc2ccc3[nH]ncc3c2)C(c2ccc(C(F)(F)F)cc2)CC(=O)N1 (centres undefined) : IC50 beneath 9 nM, strictly?
*A* rule met

*Q* In the record for CC1=C(C(=O)Nc2cc(Cl)c3[nH]ncc3c2)C(c2ccc(C(F)(F)F)cc2)CC(=O)N1 (centres undefined) [GSK-466317A] , is IC50 less than 9 nM?
*A* rule met

*Q* Please let me know if CC1=C(C(=O)Nc2ccc3[nH]ncc3c2)C(c2ccc(F)cc2)CC(=O)N1 (centres undefined) shows IC50 below 9 nM.
*A* rule not met

*Q* Field: below-cutoff. Rule: recorded IC50 strictly less than 9 nM. Subject: CC1=C(C(=O)Nc2ccc3[nH]ncc3c2)C(c2ccc(F)cc2)NC(=O)N1 (centres undefined) [GSK-180736A]
*A* rule not met

*Q* Report whether reported IC50 is lower than 9 nM (strictly) for CC1=C(C(=O)Nc2ccc3[nH]ncc3c2)C(c2ccc(Cl)c(Cl)c2)CC(=O)N1 (centres undefined) [GSK-299115A]
*A* rule met

*Q* Strictly below 9 nM in IC50? CC1=C(C(=O)Nc2ccc3[nH]ncc3c2F)C(c2ccc(C(F)(F)F)cc2)CC(=O)N1 (centres undefined)
*A* rule not met

*Q* Given the entry CC1=C(C(=O)Nc2cc3cn[nH]c3cc2F)C(c2ccc(C(F)(F)F)cc2)CC(=O)N1 (centres undefined) , would its reported IC50 be below 9 nM?
*A* rule not met

----------
# assay.text: Oral bioavailability in Sprague-Dawley rat at 1.3 mg/kg, po
# Type: ADME, organism-based
# experimental.context: in vivo
parameter.measured: bioavailability
Value and unit, in that order.

*Q* Name the recorded bioavailability for CC1=C(C(=O)Nc2ccc3[nH]nc(C)c3c2)C(c2ccc(C(F)(F)F)cc2)CC(=O)N1 (stereo unspecified) [GSK-466314A] .
*A* 18%

----------
# assay.text: Plasma concentration in spontaneously hypertensive rat at 3 mg/kg after 1 hr
# Assay type: ADME, organism-based
# Parameters: dose 3 mg/kg
parameter.measured: concentration at 1 h (ng/mL)
Entry rule: numbers only, all in ng/mL.

*Q* Reported concentration at 1 h, molecule CC1=C(C(=O)Nc2cc3cn[nH]c3cc2F)C(c2ccc(C(F)(F)F)cc2)CC(=O)N1 (stereo unspecified) : ____
*A* 192

----------
# assay.text: Volume of distribution in Sprague-Dawley rat at 0.9 mg/kg
# Type: ADME, organism-based
# Design: dose 0.9 mg/kg
# experimental.context: in vivo, read-out: Vdss
parameter.measured: Vd
Please append the unit to your numeric answer.

*Q* Sample CC1=C(C(=O)Nc2ccc3[nH]ncc3c2)C(c2ccc(Cl)c(Cl)c2)CC(=O)N1 (stereo not drawn) [GSK-299115A] — what was its Vd?
*A* 2.4 L/kg

*Q* Endpoint output: Vd of CC1=C(C(=O)Nc2cc(Cl)c3[nH]ncc3c2)C(c2ccc(C(F)(F)F)cc2)CC(=O)N1 (stereo not drawn) [GSK-466317A] . Value?
*A* 3.9 L/kg

*Q* Entry CC1=C(C(=O)Nc2ccc3[nH]ncc3c2)C(c2ccc(C(F)(F)F)cc2)CC(=O)N1 (stereo not drawn) : reported Vd = ?
*A* 2.3 L/kg

----------
This document collects IC50 values reported for Ribosomal protein S6 kinase beta-1 (Homo sapiens).
Express your answer as a number followed by its unit.

*Q* Entry CC1=C(C(=O)Nc2ccc3[nH]ncc3c2)C(c2ccc(F)cc2)NC(=O)N1 (stereo unspecified) [GSK-180736A] , system Ribosomal protein S6 kinase beta-1 (Homo sapiens): what IC50 was measured?
*A* 2850 nM

*Q* Form entry - test system: Ribosomal protein S6 kinase beta-1 (Homo sapiens); read-out: IC50; compound: CC1=C(C(=O)Nc2ccc3[nH]nc(C)c3c2)C(c2ccc(C(F)(F)F)cc2)CC(=O)N1 (stereo unspecified) [GSK-466314A]
Sequence (P23443 whole entry): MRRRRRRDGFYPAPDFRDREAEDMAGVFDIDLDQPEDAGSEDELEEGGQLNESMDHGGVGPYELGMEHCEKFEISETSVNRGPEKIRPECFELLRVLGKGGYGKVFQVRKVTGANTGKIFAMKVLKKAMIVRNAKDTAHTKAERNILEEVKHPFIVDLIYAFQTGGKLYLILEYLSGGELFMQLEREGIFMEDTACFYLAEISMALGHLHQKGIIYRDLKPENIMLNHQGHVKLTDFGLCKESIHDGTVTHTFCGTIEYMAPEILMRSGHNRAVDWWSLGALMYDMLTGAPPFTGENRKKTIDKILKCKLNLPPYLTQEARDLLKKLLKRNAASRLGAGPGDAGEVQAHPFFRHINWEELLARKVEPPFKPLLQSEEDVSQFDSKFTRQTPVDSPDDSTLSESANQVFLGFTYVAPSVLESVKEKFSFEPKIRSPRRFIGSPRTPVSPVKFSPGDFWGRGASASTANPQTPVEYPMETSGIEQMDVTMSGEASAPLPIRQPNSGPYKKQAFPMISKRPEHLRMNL
*A* 4790 nM

*Q* // fetch Ribosomal protein S6 kinase beta-1 (Homo sapiens) IC50 for CC1=C(C(=O)Nc2ccc3[nH]ncc3c2)C(c2ccc(Cl)c(Cl)c2)CC(=O)N1 (stereo unspecified) [GSK-299115A]
*A* 560 nM

*Q* Lab note: need IC50 for CC1=C(C(=O)Nc2cc(Cl)c3[nH]ncc3c2)C(c2ccc(C(F)(F)F)cc2)CC(=O)N1 (stereo unspecified) [GSK-466317A] on Ribosomal protein S6 kinase beta-1 (Homo sapiens), anyone have it?
*A* 590 nM

*Q* # query: IC50 | item CC1=C(C(=O)Nc2ccc3[nH]ncc3c2)C(c2ccc(F)cc2)CC(=O)N1 (stereo unspecified) | system: Ribosomal protein S6 kinase beta-1 (Homo sapiens)
*A* 1100 nM

*Q* What measured IC50 is associated with CC1=C(C(=O)Nc2ccc3[nH]ncc3c2)C(c2ccc3ccccc3c2)CC(=O)N1 (stereo unspecified) [GSK-270822A] on Ribosomal protein S6 kinase beta-1 (Homo sapiens)?
*A* 1550 nM

----------
# assay.text: Cmax in Sprague-Dawley rat at 1.3 mg/kg, iv
# Format: ADME, organism-based
# Set-up: dose 1.3 mg/kg, route intravenous
# experimental.context: in vivo
parameter.measured: Cmax (ng/mL)
Give the value, in units of ng/mL, as a plain number.

*Q* I'd like to know its Cmax. The molecule in question is CC1=C(C(=O)Nc2ccc3[nH]nc(C)c3c2)C(c2ccc(C(F)(F)F)cc2)CC(=O)N1 (configuration not stated) [GSK-466314A]
*A* 672

*Q* Reported Cmax, molecule CC1=C(C(=O)Nc2ccc3[nH]ncc3c2)C(c2ccc(F)cc2)NC(=O)N1 (configuration not stated) [GSK-180736A] : ____
*A* 567
